# System: PC-3
# EXPERIMENTAL DETAILS: Cytotoxicity against human PC3 cells after 48 hrs by MTS assay
# Assay type: functional, cell-based
# TEST SETTINGS: PC-3, 48 h
The reader will find reported pIC50 values listed item by item below.
Schema: pIC50 number; meaning minus log10 of the concentration expressed in molar units.

> print(dat)
                                   molecule  recorded.number
1  COc1cc(-c2nccc3[nH]c(-c4ccc5[nH]ccc5c4)nc23)cc(OC)c1OC             7.57
2  Fc1ccc(-c2nccc3ccc(-c4ccc5[nH]ccc5c4)cc23)cc1             7.59
3  COc1cc(-c2nccc3[nH]c(-c4cccc5c4ccn5S(=O)(=O)c4ccccc4)nc23)cc(OC)c1OC             6.02
4  COc1cc(-c2nccc3[nH]c(-c4cccc5ccn(S(=O)(=O)c6ccccc6)c45)nc23)cc(OC)c1OC             6.21
5  COc1cc(-c2nccc3[nH]c(-c4cccc5[nH]ccc45)nc23)cc(OC)c1OC             8.15

*Q* Hello, I am looking for reported pIC50 with PC-3 for COc1cc(-c2nccc3c2NC(c2cccc4cc[nH]c24)N3)cc(OC)c1OC (centres undefined) . Could you help?
*A* 5.91

*Q* Okay, and "COc1cc(C(=O)c2cccc(-c3cc4ccccc4[nH]3)c2)cc(OC)c1OC" ?
*A* 7.55

###

# Tested on: PC-3
# EXPERIMENTAL DETAILS: Cytotoxicity against human PC3 cells after 48 hrs by MTS assay
# Type: functional, cell-based
# TEST SETTINGS: PC-3, 48 h
READOUT: IC50
Returns: string containing the numeric result and its unit.

Observe how each entry below is paired with its result.
> print(dat)
                                   molecule  tested.target  readout    result
1  COc1cc(-c2nccc3[nH]c(-c4cc5ccccc5[nH]4)nc23)cc(OC)c1OC           PC-3     IC50   0.17 µM
2  COc1cc(-c2nccc3[nH]c(-c4c[nH]c5ccccc45)nc23)cc(OC)c1OC           PC-3     IC50  0.027 µM
3  COc1cc(-c2nccc3[nH]c(-c4cccc5cc[nH]c45)nc23)cc(OC)c1OC           PC-3     IC50  0.043 µM
4  c1cc2ccc(-c3ccc4[nH]ccc4c3)cc2c(-c2ccc3[nH]ccc3c2)n1           PC-3     IC50  0.072 µM
5  COc1cc(-c2nccc3ccc(-c4ccc5[nH]ccc5c4)cc23)cc(OC)c1OC           PC-3     IC50  0.064 µM

*Q* Entry "COc1cc(-c2nccc3[nH]c(-c4ccc5cc[nH]c5c4)nc23)cc(OC)c1OC" : reported IC50 = ?
*A* 0.008 µM

###

# Test system: M14
# EXPERIMENTAL DETAILS: Cytotoxicity against human M14 cells after 48 hrs by MTS assay
# Format: functional, cell-based
# TEST SETTINGS: M14, 48 h
pIC50: −log10 of the molar value.
Use 7 as the dividing line for pIC50, with the line itself on the 1 side and lower values as 0.

Record excerpt, results attached:
> print(dat)
                                   compound  tested.target  cat
1  COc1cc(-c2nccc3c2NC(c2cccc4cc[nH]c24)N3)cc(OC)c1OC (stereo not given)            M14    0
2  COc1cc(-c2nccc3[nH]c(-c4cccc5[nH]ccc45)nc23)cc(OC)c1OC            M14    1
3  COc1cc(-c2nccc3[nH]c(-c4c[nH]c5ccccc45)nc23)cc(OC)c1OC            M14    1
4  O=S(=O)(c1ccccc1)n1ccc2c(-c3nc4c(Br)nccc4[nH]3)cccc21            M14    0

*Q* Can "COc1cc(-c2nccc3[nH]c(-c4cccc5ccn(S(=O)(=O)c6ccccc6)c45)nc23)cc(OC)c1OC" be said to have pIC50 at or above 7?
*A* 0

*Q* Okay, and "COc1cc(-c2nccc3[nH]c(-c4cccc5cc[nH]c45)nc23)cc(OC)c1OC" ?
*A* 1
